Here is a set of compounds with reported pKi for Tyrosine-protein phosphatase non-receptor type 11 (Homo sapiens, UniProt Q06124), compiled from the literature.
- target.desc: Tyrosine-protein phosphatase non-receptor type 11 (Homo sapiens, UniProt Q06124)
- Sequence (Q06124 whole entry): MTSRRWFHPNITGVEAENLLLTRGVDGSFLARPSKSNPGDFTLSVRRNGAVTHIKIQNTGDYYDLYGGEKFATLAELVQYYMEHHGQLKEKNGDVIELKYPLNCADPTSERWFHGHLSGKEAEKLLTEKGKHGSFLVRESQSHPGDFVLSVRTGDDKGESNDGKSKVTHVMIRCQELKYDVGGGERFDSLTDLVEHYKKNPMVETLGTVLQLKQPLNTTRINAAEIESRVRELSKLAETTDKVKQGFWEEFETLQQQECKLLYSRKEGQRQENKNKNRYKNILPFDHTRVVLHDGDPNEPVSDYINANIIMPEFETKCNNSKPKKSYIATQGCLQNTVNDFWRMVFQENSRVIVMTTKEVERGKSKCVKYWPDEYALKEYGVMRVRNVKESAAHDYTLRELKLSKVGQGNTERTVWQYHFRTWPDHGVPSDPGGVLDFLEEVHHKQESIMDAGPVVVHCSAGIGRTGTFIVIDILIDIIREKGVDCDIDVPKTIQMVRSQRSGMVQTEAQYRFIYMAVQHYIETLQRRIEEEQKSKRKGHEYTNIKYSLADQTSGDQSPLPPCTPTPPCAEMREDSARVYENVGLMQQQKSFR
By convention, pKi is the negative base-10 log of a molar concentration.

input: Which pKi reading was recorded for the compound CCCCCCN(Cc1ccc(C#Cc2ccc(CCCC)cc2)cc1)c1ccc(O)c(C(=O)O)c1 ?
output: 6.19

input: Which pKi reading was recorded for the compound CC1(CN)CCN(c2cnc(Sc3cccc(Cl)c3Cl)c(N)n2)CC1 ?
output: 7.66

input: Which pKi reading was recorded for the compound O=C(Nc1ccc(I)cc1)C(=O)Nc1ccc(NC(=O)C(c2ccccc2)S(=O)(=O)O)cc1 (stereo not given) ?
output: 6.29
